Cited source: ChEMBL document CHEMBL5537169

Experiment: Cmax in CD-1 mouse at 2 mg/kg,iv measured at 0.083 to 24 hrs post administration by LC-MS/MS analysis
Format: ADME, organism-based
Conditions: in vivo, time 0.083-24 hrs
measurementKind: Cmax (ng/mL)

Consider the worked cases shown below.
>>> reportedresult("COCCCOc1cc2c(cc1OC)-c1cc(=O)c(C(=O)O)cn1[C@H](C(C)C)C2")
1150
>>> reportedresult("COCCCOc1cc2c(nc1OC)-c1cc(=O)c(C(=O)O)cn1[C@H](C(C)C)C2")
1180

P = COCCCOc1cc2c(nc1OC)-c1cc(=O)c(C(=O)O)cn1[C@](C)(C(C)(C)C)C2
Q = COCCCOc1cc2c(nc1OC)-c1cc(=O)c(C(=O)O)cn1[C@](C)(C(C)C)C2
Problem: // task: argmin of Cmax over [ P , Q ] Your answer should be the label attached to the chosen record.
Result: Q
